All figures here come from ChEMBL document CHEMBL3046615.

tested on: Heterodera zeae; experiment: Nematicidal activity against Heterodera zeae infective stage larvae assessed as nematode mortality at 0.25% under dark conditions measured 48 hr post dose by stereoscopic microscopy; type: functional
endpoint-name: mortality (%)
The figure you give is taken to be in %; do not add the unit.

Exercise: For the compound `O=C(O)c1ccc(O)c(O)c1` , report mortality.
Key: 100

Exercise: For the compound `COc1c(O)cc2oc(-c3ccc(O)c(O)c3)c(O)c(=O)c2c1O` , report mortality.
Key: 10

Exercise: For the compound `C[C@@H]1O[C@@H](OC[C@H]2O[C@@H](Oc3c(-c4ccc(O)c(O)c4)oc4cc(O)cc(O)c4c3=O)[C@H](O)[C@@H](O)[C@@H]2O)[C@H](O)[C@H](O)[C@H]1O` , report mortality.
Key: 70

Exercise: For the compound CCCCCCCC/C=C\CCCCCCCC(=O)OC [METHYL OLEATE] , report mortality.
Key: 10

Exercise: For the compound `CCCCCCCCCCCCCCCCCC(=O)O` , report mortality.
Key: 70

// switching to the query compound
Exercise: For the compound `O=C(O)c1ccccc1` , report mortality.
Key: 10

---

system: Heterodera zeae; assay: Nematicidal activity against Heterodera zeae infective stage larvae assessed as nematode mortality at 0.125% under light conditions measured 48 hr post dose by stereoscopic microscopy; type: functional
endpoint-name: mortality (%)
The figure you give is taken to be in %; do not add the unit.

Below, each entry is followed by its recorded mortality result.
Exercise: For the compound `CCCCCCCCCCCCCCCCO` , report mortality.
Key: 0

Exercise: For the compound `O=C(O)c1ccccc1` , report mortality.
Key: 0

Exercise: For the compound CCCCCCCC/C=C\CCCCCCCC(=O)OC [METHYL OLEATE] , report mortality.
Key: 50

Exercise: For the compound `COc1c(O)cc2oc(-c3ccc(O)c(O)c3)c(O)c(=O)c2c1O` , report mortality.
Key: 50

Exercise: For the compound `O=C(O)c1ccc(O)c(O)c1` , report mortality.
Key: 100

Next:
Exercise: For the compound COC(=O)c1ccc(O)c(O)c1 [METHYL PROTOCATECHUATE] , report mortality.
Key: 100

Exercise: For the compound `CCCCCCCC/C=C\CCCCCCCC(=O)O` , report mortality.
Key: 50

Exercise: For the compound `C[C@@H]1O[C@@H](OC[C@H]2O[C@@H](Oc3c(-c4ccc(O)c(O)c4)oc4cc(O)cc(O)c4c3=O)[C@H](O)[C@@H](O)[C@@H]2O)[C@H](O)[C@H](O)[C@H]1O` , report mortality.
Key: 100

---

system: Heterodera zeae; experiment: Nematicidal activity against Heterodera zeae infective stage larvae assessed as nematode mortality at 0.5% under dark conditions measured 5 to 60 min post dose by stereoscopic microscopy; assay type: functional, organism-based
Calls of active or inactive are those of the source. The calls are words filed in the database; no cut-off is given here.
endpoint-name: Activity

Exercise: For the compound COC(=O)c1ccc(O)c(O)c1 [METHYL PROTOCATECHUATE] , report Activity.
Key: inactive

Exercise: For the compound `c1csc(-c2ccc(-c3cccs3)s2)c1` , report Activity.
Key: inactive

Exercise: For the compound `CCCCC/C=C\C/C=C\CCCCCCCC(=O)O` , report Activity.
Key: inactive

Exercise: For the compound `CCCCCCCC/C=C\CCCCCCCC(=O)O` , report Activity.
Key: inactive

Next:
Exercise: For the compound `CCCCCCCCCCCCCC(=O)O` , report Activity.
Key: inactive

Exercise: For the compound `COc1c(O[C@@H]2O[C@H](CO)[C@@H](O)[C@H](O)[C@H]2O)cc2oc(-c3ccc(O)c(O)c3)c(O)c(=O)c2c1O` , report Activity.
Key: inactive

Exercise: For the compound `O=c1c(O)c(-c2ccc(O)c(O)c2)oc2cc(O)cc(O)c12` , report Activity.
Key: inactive

Exercise: For the compound `CCCCCCCCCCCCCCCC(=O)O` , report Activity.
Key: inactive
